Entry source: PubChem BioAssay AID179

- Tested on: CEM cells HIV-1 protection, formazan growth assay
- test-protocol: NCI AIDS Antiviral Assay;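 active means compounds giving half or more protection of infected cells from virus-caused growth loss, again on retest; inactive means the rest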
- Procedure: The ability of compounds to protect human CEM cells from HIV-1 infection is measured as a screen for new compounds capable of inhibiting the HIV virus. Five concentrations of drug were tested on uninfected and infected cells and cell growth was measured using a soluble formazan assay. […] Compounds that provided at least 50% protection were retested. Compounds that provided at least 50% protection on retest were listed as moderately active. […]
Lab note: assign the record to one of active, inactive

Recorded results for 10 compounds are shown here.
Nc1cnn2nnnc2c1Cl; inactive
[Cu+2].[O-]/C(=N\N=C/c1ccccc1F)c1ccncc1.[O-]/C(=N\N=C\c1ccccc1F)c1ccncc1; inactive
O=C1CC(c2ccco2)NC(=O)N1CCCl (centres undefined); inactive
O=Nc1c(O)cc(Nc2cccnc2)c2ccccc12; active
CC1N(C)C(=O)OC12CCN(CCCC(=O)c1ccc(F)cc1)CC2 (centres undefined); inactive
CN1C(=O)N/C(=C\c2ccc(S(=O)(=O)N/N=C\C(O)C(O)C(O)CO)cc2)C1=O (centres undefined); inactive
ClC(Cl)=C1C(=C(Cl)Cl)C(Cl)(Cl)C1(Cl)Cl; inactive
O=c1[nH]c2ccccc2c(O)c1-c1ccccc1; inactive
NC(Cc1ccc(O)cn1)C(=O)NC(C(=O)O)c1ccccc1 (centres undefined); inactive
O=C(/C=C\c1ccc(Cl)c(Cl)c1)c1ccc(Cl)cc1Cl; inactive

Then this compound:
Inquiry: I'd appreciate the recorded outcome for CC(=O)N1C(Nc2nccs2)CCN1c1ccccc1 (centres undefined) from this test.
Reply text: inactive
